Taken from paper PMC9454848.

Test: Plasma pharmacokinetics after multiple doses (cycle 2, steady state), LC-MS/MS
Format: in vivo, human
Settings: human, plasma, oral, 2 mg, multiple dose, steady state; Schedule B (14 days on, 7 days off), n = 1
PROPERTY_MEASURED: Cmax

# lookup: Cmax of `Cc1nnn(C)c1-c1cnc2c3ccc(C(C)(C)O)cc3n([C@H](c3ccccc3)C3CCOCC3)c2c1` 279 ng/mL

###

Experiment: Plasma pharmacokinetics after single dose (C1D1), LC-MS/MS
Assay type: in vivo, human
Settings: human, plasma, oral, 4.5 mg, cohort Schedule C, 4.5 mg, n = 5, read-out: Vz/F, GM (%CV)
PROPERTY_MEASURED: Vd/F
The answer consists of two parts: a number and, after it, its unit.

# lookup: Vd/F of Cc1nnn(C)c1-c1cnc2c3ccc(C(C)(C)O)cc3n([C@H](c3ccccc3)C3CCOCC3)c2c1 [BMS-986158] 11.6 L
